The measured values listed here are drawn from ChEMBL document CHEMBL4765368.

Tested on: CCRF-CEM
Assay: Cytotoxicity against human CCRF-CEM cells assessed as reduction in cell viability measured after 48 hrs by Hoechst 33342/propidium iodide staining based imaging analysis
Assay type: functional
Attribute: CC50
Number only, in µM; omit the unit.

Task item: Test system CCRF-CEM; read-out CC50; what value for O=C(CN1C(=O)S/C(=C/c2ccco2)C1=O)Nc1ccc(Cl)cc1C(F)(F)F ?
Reply: 79.9

Task item: Param readout = CC50; param system = CCRF-CEM; param query = O=C(CN1C(=O)S/C(=C/c2ccco2)C1=O)Nc1nc2ccccc2s1 ; response: value
Reply: 1.7

Task item: Give the reported CC50 for Cc1cccc2sc(NC(=O)CN3C(=O)S/C(=C/c4ccco4)C3=O)nc12 (system: CCRF-CEM).
Reply: 96.8

Task item: Look up CC50 with CCRF-CEM for this compound: Cc1ccc(NC(=O)CN2C(=O)S/C(=C/c3ccco3)C2=O)cc1
Reply: 102

Task item: So what CC50 did O=C(CN1C(=O)S/C(=C/c2ccco2)C1=O)Nc1ccc(Cl)c(Cl)c1 get with CCRF-CEM?
Reply: 7.8

Now for a further compound.
Task item: Item O=C(CN1C(=O)S/C(=C/c2ccco2)C1=O)Nc1ccc(Br)cc1 with CCRF-CEM - CC50?
Reply: 81

----------
Target: Solute carrier family 2, facilitated glucose transporter member 4 (Homo sapiens, UniProt P14672)
Sequence (P14672 whole entry): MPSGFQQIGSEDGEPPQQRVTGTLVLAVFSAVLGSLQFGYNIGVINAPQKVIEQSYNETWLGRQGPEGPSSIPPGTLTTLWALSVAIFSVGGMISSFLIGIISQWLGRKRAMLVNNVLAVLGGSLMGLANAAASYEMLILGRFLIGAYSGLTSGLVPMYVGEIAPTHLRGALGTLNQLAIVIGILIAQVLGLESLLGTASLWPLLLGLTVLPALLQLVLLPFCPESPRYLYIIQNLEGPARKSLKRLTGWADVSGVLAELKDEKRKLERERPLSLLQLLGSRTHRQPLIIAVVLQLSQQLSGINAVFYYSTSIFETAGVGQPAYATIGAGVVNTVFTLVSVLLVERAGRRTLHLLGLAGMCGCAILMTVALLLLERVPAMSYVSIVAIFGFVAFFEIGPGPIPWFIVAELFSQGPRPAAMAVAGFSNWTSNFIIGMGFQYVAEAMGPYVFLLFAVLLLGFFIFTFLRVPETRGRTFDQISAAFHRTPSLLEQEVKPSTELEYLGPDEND
Assay: Inhibition of transport activity of human GLUT4 expressed in hexose transporter deficient W4000fgy1 erg4 yeast cells assessed as reduction in transporter-mediated [14C]-hexose uptake into cells measured after 10 mins by scintillation counting method
VALUE_KIND: pIC50
Friendly reminder that pIC50 comes from taking -log10 of the concentration in mol/L.

// solved cases for pIC50 follow
Task item: Fill in the blank: the reported pIC50 of O=C(CN1C(=O)S/C(=C/c2ccco2)C1=O)Nc1nc2ccccc2s1 is ____.
Reply: 5.17

Task item: Param item = Cc1cccc2sc(NC(=O)CN3C(=O)S/C(=C/c4ccco4)C3=O)nc12 ; retrieve measured pIC50.
Reply: 3.91

// next entry
Task item: I'd like to know its pIC50. The compound in question is O=C(CN1C(=O)S/C(=C/c2ccco2)C1=O)Nc1ccc(Cl)c(Cl)c1
Reply: 3.82

----------
Biological target: Solute carrier family 2, facilitated glucose transporter member 1 (Homo sapiens)
Sequence (P11166 whole entry): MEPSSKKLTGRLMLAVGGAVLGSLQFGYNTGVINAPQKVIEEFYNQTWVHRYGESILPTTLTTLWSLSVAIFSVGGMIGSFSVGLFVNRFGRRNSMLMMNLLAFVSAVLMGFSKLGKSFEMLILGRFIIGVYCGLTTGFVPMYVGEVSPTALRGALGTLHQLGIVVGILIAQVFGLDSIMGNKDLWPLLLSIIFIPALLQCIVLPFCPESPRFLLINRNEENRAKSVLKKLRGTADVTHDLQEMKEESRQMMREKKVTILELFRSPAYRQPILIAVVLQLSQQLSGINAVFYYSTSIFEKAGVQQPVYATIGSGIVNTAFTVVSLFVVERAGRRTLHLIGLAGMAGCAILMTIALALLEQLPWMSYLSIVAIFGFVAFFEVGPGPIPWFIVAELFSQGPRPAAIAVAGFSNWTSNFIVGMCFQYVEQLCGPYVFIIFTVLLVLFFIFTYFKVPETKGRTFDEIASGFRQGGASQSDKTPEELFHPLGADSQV
Assay: Inhibition of transport activity of human GLUT1 expressed in hexose transporter deficient VW4000fgy1 yeast cells assessed as reduction in transporter-mediated [14C]-hexose uptake into cells measured after 10 mins by scintillation counting method
# key: entry, value: IC50
# output: bare number, implied unit µM

Task item: Value lookup for IC50; key = O=C(CN1C(=O)S/C(=C/c2ccco2)C1=O)Nc1ccc(Cl)c(Cl)c1
Reply: 14.7

Task item: Value lookup for IC50; key = O=C(CN1C(=O)S/C(=C/c2ccco2)C1=O)Nc1nc2ccccc2s1
Reply: 11.4

New cases:
Task item: Can you look up the measured IC50 of Cc1cccc2sc(NC(=O)CN3C(=O)S/C(=C/c4ccco4)C3=O)nc12 for me?
Reply: 72

----------
Test system: HS27
Assay: Cytotoxicity against human HS27 cells assessed as reduction in cell viability measured after 48 hrs by Hoechst 33342/propidium iodide staining based imaging analysis
Conditions: hs27, 48 h
VALUE_KIND: CC50 (µM)
State just the number; it will be interpreted in µM.

Task item: I am curious: what CC50 value has been reported for O=C(CN1C(=O)S/C(=C/c2ccco2)C1=O)Nc1nc2ccccc2s1 ?
Reply: 44

----------
Target: Histone deacetylase 8 (Homo sapiens)
Test: Inhibition of recombinant human His6/SUMO-tagged HDAC8 expressed in Escherichia coli (BL21) DE3 pLysS assessed as residual activity at 50 uM using Boc-Lys(trifluoroacetyl)-AMC as substrate preincubated for 60 mins followed by substrate addition and measured after 60 mins by fluorescence assay relative to control
Conditions: time 120.0 min
VALUE_KIND: Activity

Task item: // query Activity value for entry O=C(CN1C(=O)S/C(=C/c2ccco2)C1=O)Nc1ccc(Br)c(Br)c1
Reply: > 50%

Task item: Entry O=C(CN1C(=O)S/C(=C/c2ccco2)C1=O)Nc1ccc(Cl)c(Cl)c1 : reported Activity = ?
Reply: > 50%

We now examine a further molecule.
Task item: What value of Activity has been reported for the following molecule? O=C(CN1C(=O)S/C(=C/c2ccco2)C1=O)Nc1ccc(Br)cc1
Reply: > 50%

----------
System: K562
Test: Cytotoxicity against human K562 cells assessed as reduction in cell viability measured after 48 hrs by Hoechst 33342/propidium iodide staining based imaging analysis
Type: functional
Measured CC50, listed per entry.
Numbers only here, please. The scale is µM.

Example results:
Task item: Reported CC50 for K562, given Cc1cc(NC(=O)CN2C(=O)S/C(=C/c3ccco3)C2=O)no1 ?
Reply: 98.6

Task item: // fetch K562 CC50 for O=C(CN1C(=O)S/C(=C/c2ccco2)C1=O)Nc1nc2ccccc2s1
Reply: 91.9

Task item: Give CC50 (K562) of the following compound: Cc1cccc2sc(NC(=O)CN3C(=O)S/C(=C/c4ccco4)C3=O)nc12
Reply: 97.1

Next:
Task item: Item O=C(CN1C(=O)S/C(=C/c2ccco2)C1=O)Nc1ccc(Br)cc1 with K562 - CC50?
Reply: 94

Task item: What CC50 appears in the records for this compound with K562? O=C(CN1C(=O)S/C(=C/c2ccco2)C1=O)Nc1ccc(Cl)c(Cl)c1
Reply: 43.3
